Measurement description: Phase 1 Stage 1 clinical pharmacokinetics of SC ZA co-administered with rHuPH20
Format: in vivo, human
Experimental setup: human, serum, sc, ZA 5 mg SC + 24000 U rHuPH20; mean, n=3; read-out: Tmax
Value type: Tmax (min)
Report the value in min with no unit label.

Prompt: Data request, read-out Tmax, for O=P(O)(O)C(O)(Cn1ccnc1)P(=O)(O)O
Completion: 58.8

---

Measurement description: Phase 1 Stage 1 clinical pharmacokinetics of SC ZA co-administered with rHuPH20
Format: in vivo, human
Experimental setup: human, serum, sc, 0.0877 mg/kg, AUC (0-12 h), Subj 46; ZA 0.0877 mg/kg SC; inf 0.276 hr; PH20 12000 U
Procedure: A pharmacokinetic study of zoledronic acid (ZA) co-administered with rHuPH20 in human subjects was conducted. […] Serum concentration of ZA was determined using a qualified LC-MS-MS assay after derivatization with diazomethane (Zhu, L S et al. (2006) Rapid Commun. […] The assay range was from 2.0 to 400 ng/mL with a lower limit of quantitation (LLOQ) at 2.0 ng/mL. […] Summary statistics (mean, standard deviation, and median) were calculated using JMP or Microsoft Excel.
Value type: AUC(0-t) (ng·h/mL)
Number in ng·h/mL, nothing else.

Prompt: Item under review: O=P(O)(O)C(O)(Cn1ccnc1)P(=O)(O)O . Reported AUC(0-t)?
Completion: 610

These entries and their values trace back to patent US20090311237A1.
